Assay: Metabolic stability in human liver microsomes assessed as metabolic bioavailability at 0.1 uM preincubated for 10 mins followed by NADPH addition and measured upto 60 mins by LC-MS/MS analysis
Format: ADME, Microsome
Details: time < 70 min
Readout Kind: Fh at 1 h, 0.1 µM (%)
Answer format: numeric, % implied, no suffix.

Oc1c(Br)cc(C(F)(F)F)cc1-c1csc(-c2[nH]c(Br)c(Br)c2Br)n1 yielded Fh at 1 h, 0.1 µM of 2.26

---

Assay: Metabolic stability in dog liver microsomes assessed as metabolic bioavailability at 0.1 uM preincubated for 10 mins followed by NADPH addition and measured upto 60 mins by LC-MS/MS analysis
Type: ADME, Canis lupus familiaris, Microsome
Conditions: time < 70 min
Readout Kind: Fh at 1 h, 0.1 µM (%)
Answer format: numeric, % implied, no suffix.

Oc1c(Br)cc(C(F)(F)F)cc1-c1csc(-c2[nH]c(Br)c(Br)c2Br)n1 yielded Fh at 1 h, 0.1 µM of 18.4

---

Test system: Staphylococcus aureus
Test: Antibacterial activity against vancomycin-intermediate resistant Staphylococcus aureus ATCC 700699/Mu50 assessed as reduction in bacterial growth incubated for 24 hrs by broth microdilution method
Assay type: functional
Readout Kind: MIC (µg/mL)
Answer format: numeric, µg/mL implied, no suffix.

// solved cases for MIC follow
{"columns": ["Smiles Code", "MIC (µg/mL)"],
 "data": [
  ["Oc1c(Br)cc(C(F)(F)F)cc1-c1csc(-c2[nH]c(Br)c(Br)c2Br)n1", 2],
  ["Oc1c(Br)cc(C(F)(F)F)cc1-c1csc(-c2cc(C(F)(F)F)n[nH]2)n1", 8],
  ["O=[N+]([O-])c1cc(-c2nc(-c3cc(Br)cc(Br)c3O)cs2)[nH]n1", 8],
  ["O=[N+]([O-])c1cc(-c2nc(-c3cc(C(F)(F)F)cc(Br)c3O)cs2)[nH]n1", 8]
]}

API: the following record is the query input.
Param item: Oc1c(Br)cc(C(F)(F)F)cc1-c1csc(-c2cc(Cl)c(Cl)[nH]2)n1 ; param system: Staphylococcus aureus; output MIC: 1

---

Assay: Metabolic stability in rat liver microsomes assessed as metabolic bioavailability at 0.1 uM preincubated for 10 mins followed by NADPH addition and measured upto 60 mins by LC-MS/MS analysis
Assay type: ADME, Microsome
Details: time < 70 min
Readout Kind: Fh at 1 h, 0.1 µM (%)
Answer format: numeric, % implied, no suffix.

Oc1c(Br)cc(C(F)(F)F)cc1-c1csc(-c2[nH]c(Br)c(Br)c2Br)n1 yielded Fh at 1 h, 0.1 µM of 65.7

---

Listed here: items and their measured MIC.
Tested on: Staphylococcus aureus
Test: Antibacterial activity against vancomycin-intermediate resistant Staphylococcus aureus ATCC 700699/Mu50 assessed as reduction in bacterial growth incubated for 24 hrs by broth microdilution method
Assay type: functional
Answer format: numeric, µg/mL implied, no suffix.

{"columns": ["Smiles Code", "Value Observed"],
 "data": [
  ["CN[C@H](CC(C)C)C(=O)N[C@H]1C(=O)N[C@@H](CC(N)=O)C(=O)N[C@H]2C(=O)N[C@H]3C(=O)N[C@H](C(=O)N[C@H](C(=O)O)c4cc(O)cc(O)c4-c4cc3ccc4O)[C@H](O)c3ccc(c(Cl)c3)Oc3cc2cc(c3O[C@@H]2O[C@H](CO)[C@@H](O)[C@H](O)[C@H]2O[C@H]2C[C@](C)(N)[C@H](O)[C@H](C)O2)Oc2ccc(cc2Cl)[C@H]1O", 8]
]}

O=[N+]([O-])c1cc(-c2nc(-c3cc(Cl)cc(Cl)c3O)cs2)[nH]n1 yielded MIC of 128

---

Listed here: items and their measured MIC.
Tested on: Staphylococcus aureus
Assay: Antibacterial activity against vancomycin-intermediate resistant Staphylococcus aureus ATCC 700699/Mu50 assessed as reduction in bacterial growth incubated for 24 hrs by broth microdilution method
Assay type: functional
Answer format: numeric, µg/mL implied, no suffix.

{"columns": ["Smiles Code", "U", "Value Observed"],
 "data": [
  ["Oc1c(Br)cc(Br)cc1-c1csc(-c2cc(C(F)(F)F)n[nH]2)n1", "µg/mL", 2],
  ["Oc1c(Cl)cc(Cl)cc1-c1csc(-c2cc(C(F)(F)F)n[nH]2)n1", "µg/mL", 4],
  ["Oc1c(Br)cc(C(F)(F)F)cc1-c1csc(-c2cc(Br)c(Br)[nH]2)n1", "µg/mL", 1],
  ["FC(F)(F)c1cc(Br)cc(-c2csc(-c3[nH]c(Br)c(Br)c3Br)n2)c1", "µg/mL", 16]
]}

API: the following record is the query input.
Oc1ccc(C(F)(F)F)cc1-c1csc(-c2cc(Cl)c(Cl)[nH]2)n1 yielded MIC of 4

---

Listed here: items and their measured MIC.
System: Staphylococcus aureus
Assay: Antibacterial activity against vancomycin-intermediate resistant Staphylococcus aureus ATCC 700699/Mu50 assessed as reduction in bacterial growth incubated for 24 hrs by broth microdilution method
Format: functional

// solved cases for MIC follow
{"columns": ["Smiles Code", "MIC"],
 "data": [
  ["Oc1c(Br)cc(Br)cc1-c1csc(-c2cc(Cl)c(Cl)[nH]2)n1", "> 256 µg/mL"],
  ["O=C(c1cc(Cl)c(Cl)[nH]1)c1cc(Cl)cc(Cl)c1O", "≤ 0.125 µg/mL"],
  ["Oc1c(F)cc(F)cc1-c1csc(-c2cc(Cl)c(Cl)[nH]2)n1", "> 256 µg/mL"]
]}

Oc1c(Cl)cc(Cl)cc1-c1csc(-c2[nH]c(Br)c(Br)c2Br)n1 yielded MIC of > 256 µg/mL

Oc1ccccc1-c1csc(-c2cc(Cl)c(Cl)[nH]2)n1 yielded MIC of > 256 µg/mL

Every entry's value here was drawn from ChEMBL document CHEMBL5505986.
